Reported composite z-score values for the following compounds.
System: Human papillomavirus type 1a E7 protein (residues 1-88)
Assay: HPV1a E7 small-molecule binders, primary screen, biochemical, small-molecule microarray, residues 1-88, 635 nm (AID 1129)
Details: small-molecule microarray binding, fluorescence 635 nm; higher = more signal
Response field accepts a number only; no unit should be typed.

Illustrative cases are given below, each with its answer.
Task: Which composite z-score is listed for CC(CCN1CCCCc2nc(C)c(C)cc21)=NOC(C)CN1CCCCc2nc(C)c(C)cc21 (configuration not stated) ?
Output: 1.2

Task: Which composite z-score is listed for CC(C)CON=C1C[C@@H](O)[C@@H](O)[C@@H]2[C@@H]3C(=O)N([C@@H](C)c4ccccc4)C(=O)[C@@H]3CC[C@H]12 ?
Output: 1.17

Next:
Task: Which composite z-score is listed for N#Cc1ccc(NN2C(C(O)c3cccc4ccccc34)C=CC3C(=O)N(c4ccccc4)C(=O)C32)cc1 (configuration not stated) ?
Output: 1.24

Task: Which composite z-score is listed for COc1cccc([C@@H]2Oc3ccc(Br)cc3C(=O)[C@H]2O)c1 ?
Output: 0.615
